Reference for the values: patent US20210115124A1

Target: T1, human VEGF (hVEGF) (human, UniProt P15692 181-395)
T1 construct: also called VEGF-A
T1 sequence: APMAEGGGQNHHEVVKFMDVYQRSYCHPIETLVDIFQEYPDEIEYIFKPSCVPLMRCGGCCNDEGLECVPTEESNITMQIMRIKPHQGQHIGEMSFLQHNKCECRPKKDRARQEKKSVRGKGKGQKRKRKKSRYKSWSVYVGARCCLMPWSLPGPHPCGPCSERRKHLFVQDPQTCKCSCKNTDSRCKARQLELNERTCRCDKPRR
Assay: SPR single-cycle;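 also: fab variants injected over hVEGF immobilized on a CM5 chip (Biacore T200), threefold dilution series from 0.02 to 50 nM, kinetics fitted with a 1:1 Langmuir model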
reported_endpoint: Fold change (relative to G6.31) (fold)
Field format: number, assumed fold, no unit text.

For G6.31 LC-P59E (Fab, V domains shown, Fab) VH: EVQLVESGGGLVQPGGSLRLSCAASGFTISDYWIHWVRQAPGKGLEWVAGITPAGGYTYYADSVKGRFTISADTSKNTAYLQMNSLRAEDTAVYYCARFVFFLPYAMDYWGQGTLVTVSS VL: DIQMTQSPSSLSASVGDRVTITCRASQDVSTAVAWYQQKPGKAPKLLIYSASFLYSGVESRFSGSGSGTDFTLTISSLQPEDFATYYCQQGYGNPFTFGQGTKVEIK , what is its reported Fold change (relative to G6.31)?
1.1

Any idea what its Fold change (relative to G6.31) is? The binder is G6.31 LC-A51E (Fab, V domains shown, Fab) VH: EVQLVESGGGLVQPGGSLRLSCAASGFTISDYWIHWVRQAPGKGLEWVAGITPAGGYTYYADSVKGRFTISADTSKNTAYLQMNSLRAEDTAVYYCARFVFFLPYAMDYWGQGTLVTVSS VL: DIQMTQSPSSLSASVGDRVTITCRASQDVSTAVAWYQQKPGKAPKLLIYSESFLYSGVPSRFSGSGSGTDFTLTISSLQPEDFATYYCQQGYGNPFTFGQGTKVEIK
0.6

Return reported Fold change (relative to G6.31); argument: G6.31 HC-P41E (Fab, name in Kabat numbering, V domains shown, Fab) VH: EVQLVESGGGLVQPGGSLRLSCAASGFTISDYWIHWVRQAEGKGLEWVAGITPAGGYTYYADSVKGRFTISADTSKNTAYLQMNSLRAEDTAVYYCARFVFFLPYAMDYWGQGTLVTVSS VL: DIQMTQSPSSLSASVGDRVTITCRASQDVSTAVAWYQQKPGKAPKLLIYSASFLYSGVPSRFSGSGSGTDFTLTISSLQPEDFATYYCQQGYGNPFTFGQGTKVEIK
0.5
